Test system: giant foxtail
Assay: Test C preemergence/postemergence greenhouse plant response rating 0 to 100
Type: in vivo, Setaria faberii
Settings: Rate 31 g/ha; POSTEMERGENCE
Text: The compounds evaluated in this test were formulated in a non-phytoxic solvent and applied to the soil surface before plant seedlings emerged (preemergence application), to water that covered the soil surface (flood application), and to plants that were in the one-to-four leaf stage (postemergence application). A sandy loam soil was used for the preemergence and postemergence tests, while a silt loam soil was used in the flood test. […]
parameter.measured: Plant response rating (0 to 100), Giant foxtail

{"compound": "C=C(Cl)COc1cc(-c2nn3c(c2Cl)CCCC3)c(F)cc1Cl [Compound 40]", "recorded.value": 40}
{"compound": "CCOC(=O)COc1cc(-c2nn3c(c2Cl)CCCC3)c(F)cc1Cl [Compound 42]", "recorded.value": 30}
{"compound": "CCOCOc1cc(-c2nn3c(c2Cl)CCCC3)c(F)cc1Cl [Compound 59]", "recorded.value": 70}
{"compound": "C=CCN1C(=O)COc2cc(F)c(-c3nn4c(c3Br)CCCC4)cc21 [Compound 41]", "recorded.value": 30}

Every entry's value here was drawn from patent US6358885B1.
